- Tested on: Plasma
- PROCEDURE SUMMARY: Fraction unbound (%) in human plasma at 10 uM by LC/MS-MS analysis
- Format: ADME, cell-free
- REPORTED CONDITIONS: 10 µM
Would you mind telling me the reported Fu of each entry?

Entry Cc1noc(C)c1C(=O)Nc1c(N2CCC(Cc3ccccc3)CC2)c(=O)c1=O — recorded Fu = < 1%

Entry Cc1noc(C)c1S(=O)(=O)Nc1c(N2CCC(c3ccccc3)CC2)c(=O)c1=O — recorded Fu = < 1%

Entry Cc1noc(C)c1S(=O)(=O)Nc1c(N2CCCC(Cc3ccccc3)C2)c(=O)c1=O (centres undefined) — recorded Fu = < 1%

Entry Cc1nn(C(F)F)cc1S(=O)(=O)Nc1c(N2CCC(Cc3ccccc3)CC2)c(=O)c1=O — recorded Fu = < 1%

Entry CCCC/C(C)=C/C=C(\C)C(=O)c1c(O)cc(C(C)CC/C=C/NC(=O)OC)oc1=O (racemic) — recorded Fu = < 1%

Entry Cc1noc(C)c1S(=O)(=O)Nc1c(N2CCN(CCc3ccccc3)CC2)c(=O)c1=O — recorded Fu = 4.9%

Entry COc1ccc(CN2CCN(c3c(NS(=O)(=O)c4c(C)noc4C)c(=O)c3=O)CC2)cc1 — recorded Fu = 1.8%

Entry Cc1noc(C)c1S(=O)(=O)Nc1c(N2CCC(C)CC2)c(=O)c1=O — recorded Fu = 1.6%

Entry Cc1noc(C)c1S(=O)(=O)Nc1c(N2CCC(NCc3ccc(F)cc3)CC2)c(=O)c1=O — recorded Fu = 26%
